target: Recombinant human liver glucokinase (Homo sapiens (Human), UniProt P35557); test: Glucokinase activation assay (G6PDH-coupled, Thio-NADH absorbance at 405 nm); conditions: 2.5 mM Glu, 30° C.
Sequence (P35557 other isoform, or with tags, fused parts or gaps): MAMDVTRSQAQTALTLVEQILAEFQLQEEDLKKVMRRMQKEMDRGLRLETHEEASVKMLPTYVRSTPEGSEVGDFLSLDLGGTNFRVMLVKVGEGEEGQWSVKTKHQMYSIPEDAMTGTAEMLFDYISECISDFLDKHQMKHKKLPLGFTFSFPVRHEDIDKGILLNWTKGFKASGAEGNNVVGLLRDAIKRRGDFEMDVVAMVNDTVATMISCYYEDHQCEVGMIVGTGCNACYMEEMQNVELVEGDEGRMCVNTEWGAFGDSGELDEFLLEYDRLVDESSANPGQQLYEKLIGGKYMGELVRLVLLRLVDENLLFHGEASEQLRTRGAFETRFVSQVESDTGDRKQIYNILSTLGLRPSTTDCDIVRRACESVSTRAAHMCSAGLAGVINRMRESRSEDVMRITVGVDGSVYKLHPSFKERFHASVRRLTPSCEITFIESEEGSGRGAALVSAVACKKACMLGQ
Response field label: string, one of yes (1) (EC50 strictly below 0.02 µM) or no (0).

Asked: Is it true that EC50 reported for COc1ccc(Sc2ccc(Sc3nncn3C)nc2C(=O)Nc2ncc(CCC(=O)O)s2)cc1 [Example 8] is less than 0.02 µM?
Given back: no (0)

Asked: Is it true that EC50 reported for Cn1cnnc1Sc1ccc(Sc2ccc(Cl)c(Cl)c2)c(C(=O)Nc2ncc(SCC(=O)O)s2)n1 [Example 52] is less than 0.02 µM?
Given back: yes (1)

Asked: Is it true that EC50 reported for O=C(O)Cc1nc(NC(=O)c2nc(Sc3ccc(F)cc3)ccc2Sc2ccc(F)cc2)sc1Cl [Example 30] is less than 0.02 µM?
Given back: yes (1)

Asked: Is it true that EC50 reported for CCOC(=O)C(C)(C)CSc1cnc(NC(=O)c2nc(Sc3nncn3C)ccc2Sc2ccc(OC)cc2)s1 [Example 5] is less than 0.02 µM?
Given back: yes (1)

Asked: Is it true that EC50 reported for CCOP(=O)(Cc1cnc(NC(=O)c2nc(Sc3nncn3C)ccc2Sc2ccc(F)cc2)s1)OCC [Example 26] is less than 0.02 µM?
Given back: no (0)
